Data provenance: PubChem BioAssay (NCI)

Below, each entry is listed with its recorded TGI.
Test system: OVCAR-3 ovarian
Assay: NCI tumour cell line growth inhibition, 48 h

{"MOLECULE": "COc1cc([N+](=O)[O-])ccc1NC(=O)c1cccc([N+](=O)[O-])c1O", "TARGET_OR_TEST_SYSTEM": "OVCAR-3 ovarian", "RESULT": "> 100 µM"}

Q) # return TGI of CC(=O)NC(CCCNC(=O)OCc1ccccc1)C(=O)O (stereo not given) (system: OVCAR-3 ovarian)
A) > 100 µM

Q) # return TGI of "COc1cc(/C=C/c2cc(O)c(C/C=C(\C)CC/C=C(\C)CO)c(O)c2)cc2c1O[C@]1(C)CC[C@@H](O)C(C)(C)[C@H]1C2" (system: OVCAR-3 ovarian)
A) > 70.2 µM

Q) # return TGI of COC(CC1(OC)OC(=O)C=C1N)OC (stereo not given) (system: OVCAR-3 ovarian)
A) > 100 µM

Q) # return TGI of "Cc1cc2cc3ccccc3cc2c(=O)[nH]1" (system: OVCAR-3 ovarian)
A) > 10 µM
